- targetEntity: Prothrombin (Homo sapiens)
assayEndpoint: Ki (µM)
Answers are plain numbers, in µM.

# smilesEntry, targetEntity, unitAbbreviation, Ki
rows = [
    ("COc1ccc2ccc(S(=O)(=O)N(C)[C@H]3CCN(Cc4cc(C(=N)N)ccc4N)C3=O)cc2c1", "Prothrombin (Homo sapiens)", "µM", 0.201),
]

Would you mind listing Ki for each of the following molecules?
1. COc1ccc2ccc(S(=O)(=O)N[C@H]3CCN(Cc4cc(C(=N)N)ccc4O)C3=O)cc2c1
2. N=C(N)c1ccc(F)c(CN2CC[C@H](NS(=O)(=O)c3ccc(-c4cccnc4)s3)C2=O)c1
3. COc1ccc2ccc(S(=O)(=O)N[C@H]3CCN(Cc4cccc(C(=N)N)c4)C3=O)cc2c1
4. N=C(N)c1ccc(O)c(CN2CC[C@H](NS(=O)(=O)c3ccc(-c4cccnc4)s3)C2=O)c1
5. N=C(N)c1cccc(CN2CC[C@H](NS(=O)(=O)c3ccc(-c4ccncc4)s3)C2=O)c1

Result:
[0.206, 4, 1.43, 2.8, 3]

====

- targetEntity: Coagulation factor X (Homo sapiens, UniProt P00742)
- Sequence (P00742 41-179 limits assumed): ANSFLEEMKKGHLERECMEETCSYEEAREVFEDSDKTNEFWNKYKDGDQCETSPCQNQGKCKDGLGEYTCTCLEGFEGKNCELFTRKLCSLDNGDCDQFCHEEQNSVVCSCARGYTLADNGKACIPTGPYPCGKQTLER
- Sequence (P00742 235-488 limits assumed): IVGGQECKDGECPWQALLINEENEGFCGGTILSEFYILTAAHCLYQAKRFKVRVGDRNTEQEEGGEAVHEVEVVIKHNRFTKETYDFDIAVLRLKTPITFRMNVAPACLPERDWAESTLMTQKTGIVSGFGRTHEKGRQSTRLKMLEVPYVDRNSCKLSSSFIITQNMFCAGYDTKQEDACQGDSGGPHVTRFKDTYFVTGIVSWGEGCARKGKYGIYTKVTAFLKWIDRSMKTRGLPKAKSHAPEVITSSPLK
pKi: −log10 of the molar value.
Binned pKi; ranges: bottom end = under 6, midrange = from 6 up to 8, top end = 8 and over

# smilesEntry, cat
records = [
    ("N=C(N)c1cccc(CN2CC[C@H](NS(=O)(=O)c3ccc(-c4ccccc4)cc3)C2=O)c1", "midrange"),
    ("N=C(N)c1cccc(CN2CC[C@H](NS(=O)(=O)c3ccc(-c4cccnc4)cc3)C2=O)c1", "midrange"),
    ("N=C(N)c1ccc(O)c(CN2CC[C@H](NS(=O)(=O)c3ccc(-c4cccnc4)s3)C2=O)c1", "top end"),
    ("N=C(N)c1cccc(CN2CC[C@H](NS(=O)(=O)c3ccc(-c4ccncc4)cc3)C2=O)c1", "midrange"),
]

Request: Hi there! Could you help me figure out the category for Cn1ccnc1-c1ccc(S(=O)(=O)N[C@H]2CCN(Cc3cccc(C(=N)N)c3)C2=O)cc1 please?
Result: bottom end

Request: Hi there! Could you help me figure out the category for COc1ccc2ccc(S(=O)(=O)N[C@H]3CCN(Cc4cc(C(=N)N)ccc4O)C3=O)cc2c1 please?
Result: top end

====

Record form. Attribute: Ki. Fill in for each entry.
- targetEntity: UniProt P00742
Give bare numbers, in nM.

// worked examples, Ki included
# smilesEntry, Ki [nM]
rows = [
    ("COc1ccc2ccc(S(=O)(=O)N[C@H]3CCN(Cc4ccc(O)c(C(=N)N)c4)C3=O)cc2c1", 983),
    ("N=C(N)c1ccc(N)c(CN2CC[C@H](NS(=O)(=O)c3ccc(-c4cccnc4)s3)C2=O)c1", 6),
]

Request: Entry COc1ccc2ccc(S(=O)(=O)N(C)[C@H]3CCN(Cc4cc(C(=N)N)ccc4NC(C)=O)C3=O)cc2c1 : reported Ki = ?
Result: 919
